- Test system: TZM
- assay-notes: Cytotoxicity against human TZM-bl cells after 4 days by XTT assay
- Format: cell-based
- condition-info: 96 h
assay-readout: CC50

Per the records, this compound ( Cc1cc(C#N)cc(C)c1Oc1nc(NC2CN(Cc3ccncc3)C2)nc2ccsc12 ) has CC50 equal to > 282 nM

Per the records, this compound ( Cc1cc(C#N)cc(C)c1Oc1nc(NC2CCCN(Cc3cccc(C(N)=O)c3)CC2)nc2ccsc12 (stereo not given) ) has CC50 equal to > 237 nM

Per the records, this compound ( Cc1cc(C#N)cc(C)c1Oc1nc(NC2CN(Cc3ccc(S(C)(=O)=O)cc3)C2)nc2ccsc12 ) has CC50 equal to > 240 nM

Per the records, this compound ( Cc1cc(C#N)cc(C)c1Oc1nc(NC2CCCN(Cc3ccc(S(C)(=O)=O)cc3)CC2)nc2ccsc12 (stereo not given) ) has CC50 equal to > 222 nM

Per the records, this compound ( Cc1cc(C#N)cc(C)c1Oc1nc(N[C@@H]2CCN(Cc3ccncc3)C2)nc2ccsc12 ) has CC50 equal to > 273 nM

###

Give measured selectivity ratio for each item. Keep answers brief.
- assay-notes: Selectivity ratio of CC50 for human MT4 cells to EC50 for HIV1 3B infected in human MT4 cells
- Type: toxicity, cell-based
- condition-info: read-out: Ratio CC50/EC50
Field format: numeric only.

Per the records, this molecule ( Cc1cc(C#N)cc(C)c1Oc1nc(NC2CCN(Cc3ccc(S(N)(=O)=O)cc3)CC2)nc2c1SCC2 ) has selectivity ratio equal to 4580

Per the records, this molecule ( Cc1cc(C#N)cc(C)c1Oc1nc(NC2CCN(Cc3ccc([N+](=O)[O-])cc3)CC2)nc2c1SCC2 ) has selectivity ratio equal to 770

Per the records, this molecule ( Cc1cc(C#N)cc(C)c1Oc1nc(NC2CCN(Cc3ccc(S(C)(=O)=O)cc3)CC2)nc2c1CCC2 ) has selectivity ratio equal to 1500

Per the records, this molecule ( Cc1cc(C#N)cc(C)c1Oc1nc(NC2CCN(Cc3ccc(S(C)(=O)=O)cc3)CC2)nc2c1CSC2 ) has selectivity ratio equal to 11700

Per the records, this molecule ( Cc1cc(C#N)cc(C)c1Oc1nc(NC2CCN(Cc3cccc(C(N)=O)c3)CC2)nc2c1SCCC2 ) has selectivity ratio equal to 1140

Per the records, this molecule ( Cc1cc(C#N)cc(C)c1Oc1nc(NC2CCN(Cc3ccncc3)CC2)nc2c1COC2 ) has selectivity ratio equal to 15900

Per the records, this molecule ( Cc1cc(C#N)cc(C)c1Oc1nc(NC2CCN(Cc3ccc(S(C)(=O)=O)cc3)CC2)nc2c1SCC2 ) has selectivity ratio equal to 2020

Per the records, this molecule ( Cc1cc(C#N)cc(C)c1Oc1nc(NC2CCN(Cc3ccc([N+](=O)[O-])cc3)CC2)nc2c1CCCC2 ) has selectivity ratio equal to 376

###

- System: Human immunodeficiency virus 1
- assay-notes: Antiviral activity against HIV1 harboring reverse transcriptase Y181C mutant infected in human MT4 cells assessed as reduction in virus-induced cytopathic effect after 5 days by MTT assay
- Format: functional, organism-based
- condition-info: Human immunodeficiency virus 1, MT4, 120 h
Give measured pEC50 for each item. Keep answers brief.
Scale note: pEC50 = -log10(concentration in M).

Per the records, this molecule ( Cc1cc(C#N)cc(C)c1Oc1nc(NC2CCN(Cc3ccc(C(N)=O)cc3)CC2)nc2c1SCC2 ) has pEC50 equal to 8.08

Per the records, this molecule ( Cc1cc(C#N)cc(C)c1Oc1nc(NC2CCN(Cc3ccc(S(N)(=O)=O)cc3)CC2)nc2c1CCC2 ) has pEC50 equal to 7.85

Per the records, this molecule ( Cc1cc(C#N)cc(C)c1Oc1nc(NC2CCN(Cc3ccncc3)CC2)nc2c1COC2 ) has pEC50 equal to 8.31

Per the records, this molecule ( Cc1cc(C#N)cc(C)c1Oc1nc(NC2CCN(Cc3ccc(C(N)=O)cc3)CC2)nc2c1COC2 ) has pEC50 equal to 8.36

Per the records, this molecule ( Cc1cc(C#N)cc(C)c1Oc1nc(Nc2ccc(C#N)cc2)nc(N)c1Br ) has pEC50 equal to 7.84

Per the records, this molecule ( Cc1cc(C#N)cc(C)c1Oc1nc(NC2CCN(Cc3ccc(S(C)(=O)=O)cc3)CC2)nc2c1COC2 ) has pEC50 equal to 8.31

Per the records, this molecule ( Cc1cc(C#N)cc(C)c1Oc1nc(NC2CCN(Cc3ccc(S(N)(=O)=O)cc3)CC2)nc2c1SCCC2 ) has pEC50 equal to 7.98

Per the records, this molecule ( Cc1cc(C#N)cc(C)c1Oc1nc(NC2CCN(Cc3ccc(S(N)(=O)=O)cc3)CC2)nc2c1SCC2 ) has pEC50 equal to 8.10

Per the records, this molecule ( Cc1cc(C#N)cc(C)c1Oc1nc(NC2CCN(Cc3ccc(S(N)(=O)=O)cc3)CC2)nc2c1COC2 ) has pEC50 equal to 8.27

###

assay-readout: IC50

The value of IC50 recorded for Cc1cc(C#N)cc(C)c1Oc1nc(NC2CCN(Cc3ccc(C(N)=O)cc3)CC2)nc2c1COC2 when tested on Cytochrome P450 3A4 (Homo sapiens) reads > 50 µM

###

Give measured selectivity ratio for each item. Keep answers brief.
- assay-notes: Selectivity ratio of CC50 for human TZM-bl cells to EC50 for HIV1 NL4-3 infected in human TZM-bl cells
- Assay type: toxicity, cell-based
- condition-info: read-out: Ratio CC50/EC50

Per the records, this compound ( Cc1cc(C#N)cc(C)c1Oc1nc(NC2CC3CCC(C2)N3Cc2ccc(C(N)=O)cc2)nc2ccsc12 (centres undefined) ) has selectivity ratio equal to 1

Per the records, this compound ( Cc1cc(C#N)cc(C)c1Oc1nc(NC2CCCN(Cc3ccc(C(N)=O)cc3)CC2)nc2ccsc12 (centres undefined) ) has selectivity ratio equal to 1

Per the records, this compound ( Cc1cc(C#N)cc(C)c1Oc1nc(NC2CN(Cc3ccc(S(N)(=O)=O)cc3)C2)nc2ccsc12 ) has selectivity ratio equal to 53

Per the records, this compound ( Cc1cc(C#N)cc(C)c1Oc1nc(NC2CN(Cc3ccc(C(N)=O)cc3)C2)nc2ccsc12 ) has selectivity ratio equal to 54

Per the records, this compound ( Cc1cc(C#N)cc(C)c1Oc1nc(NC2CCN(Cc3ccc(S(N)(=O)=O)cc3)CC2)nc2ccsc12 ) has selectivity ratio equal to 196

Per the records, this compound ( Cc1cc(C#N)cc(C)c1Oc1nc(NC2CCCN(Cc3ccncc3)CC2)nc2ccsc12 (centres undefined) ) has selectivity ratio equal to 8

Per the records, this compound ( Cc1cc(C#N)cc(C)c1Oc1nc(NC2CC3CCC(C2)N3Cc2ccncc2)nc2ccsc12 (centres undefined) ) has selectivity ratio equal to 1

Per the records, this compound ( Cc1cc(C#N)cc(C)c1Oc1nc(NC2CC3CCC(C2)N3Cc2ccc(S(C)(=O)=O)cc2)nc2ccsc12 (centres undefined) ) has selectivity ratio equal to 1

Per the records, this compound ( Cc1cc(C#N)cc(C)c1Oc1nc(NC2CC3CCC(C2)N3Cc2cccc(C(N)=O)c2)nc2ccsc12 (centres undefined) ) has selectivity ratio equal to 1

###

- assay-notes: Clearance in Wistar rat at 2 mg/kg, iv by LC-MS/MS analysis
- Format: ADME, organism-based
- condition-info: in vivo
assay-readout: clearance
Report the figure along with its unit, number first.

Per the records, this molecule ( Cc1cc(C#N)cc(C)c1Oc1nc(NC2CCN(Cc3ccc(C(N)=O)cc3)CC2)nc2c1COC2 ) has clearance equal to 61.5 mL/min/kg

###

- System: Human immunodeficiency virus 1
- assay-notes: Resistance factor, ratio of EC50 for HIV1 harboring reverse transcriptase E138K mutant to EC50 for wild type HIV1
- Format: functional
Give measured Ratio EC50 for each item. Keep answers brief.
Field format: numeric only.

Per the records, this compound ( Cc1cc(C#N)cc(C)c1Oc1nc(NC2CCN(Cc3ccc(C(N)=O)cc3)CC2)nc2c1SCC2 ) has Ratio EC50 equal to 3.3

Per the records, this compound ( Cc1cc(C#N)cc(C)c1Oc1nc(NC2CCN(Cc3ccc(S(N)(=O)=O)cc3)CC2)nc2c1CCC2 ) has Ratio EC50 equal to 38.4

Per the records, this compound ( Cc1cc(C#N)cc(C)c1Oc1nc(NC2CCN(Cc3ccc(S(N)(=O)=O)cc3)CC2)nc2c1SCCC2 ) has Ratio EC50 equal to 3.1

Per the records, this compound ( Cc1cc(C#N)cc(C)c1Oc1nc(NC2CCN(Cc3ccc(S(C)(=O)=O)cc3)CC2)nc2c1COC2 ) has Ratio EC50 equal to 4

Per the records, this compound ( Cc1cc(C#N)cc(C)c1Oc1nc(NC2CCN(Cc3ccc(C(N)=O)cc3)CC2)nc2c1COC2 ) has Ratio EC50 equal to 4.4

Per the records, this compound ( Cc1cc(C#N)cc(C)c1Oc1nc(NC2CCN(Cc3ccc(S(N)(=O)=O)cc3)CC2)nc2c1SCC2 ) has Ratio EC50 equal to 2.7

Per the records, this compound ( Cc1cc(C#N)cc(C)c1Oc1nc(NC2CCN(Cc3ccncc3)CC2)nc2c1COC2 ) has Ratio EC50 equal to 2.6

Per the records, this compound ( Cc1cc(C#N)cc(C)c1Oc1nc(NC2CCN(Cc3ccc(S(N)(=O)=O)cc3)CC2)nc2c1COC2 ) has Ratio EC50 equal to 2.7
